Test: Stat Signaling Pathway (AID 446);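 also: ME-180 cervical cancer cells given 40 pM IL-6 alongside compound; SIE-controlled beta-lactamase reporter measured as 460/530 nm FRET emission ratio; % is scaled to controls: 0 for no effect and ±100 for the full control effect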
Settings: ME-180 (cervical carcinoma) SIE beta-lactamase reporter, IL-6 stimulated, 5 h; at 17.2 µM (top of the series) unless noted
Results filed as inconclusive are left out. Calls of active or inactive are those of the source. Calls follow the shape of the dose curve; as a rule, active = well fitted curve in either direction with a large enough effect (not every such curve was filed as active); inconclusive = small, poorly fitted or top-dose-only effect, or another doubt; inactive = flat fitted curve, though single readings scatter.
I'd be grateful if you could share measured activity, negative = inhibition for these entries.

Below are worked cases with known answers.
Task item: Quick one: activity, negative = inhibition for `CC1(C)Cc2c(c(-c3ccccc3)nc3[nH][nH]c(=O)c23)CO1` ?
Reply: 12.3% (inactive)

Task item: Another compound: `Cc1ccc(-c2nn(C)c(=O)c3ccccc23)cc1CNC(=O)CSc1nc2ccccc2o1`
Reply: -16.9% (inactive)

Task item: Another compound: C=C(C)CSC1=C(C#N)C(c2ccsc2)CC(=O)N1 (stereo unspecified)
Reply: -1.45% (inactive)

Task item: Another compound: `CCOC(=O)c1[nH]c2ccc(Br)cc2c1NC(=O)CNC`
Reply: -1.05% (inactive)

Task item: Another compound: C/C(=N\O)C1(C)N(O)C(C)(C)C(c2ccco2)=[N+]1[O-] (stereo unspecified)
Reply: 1.33% (inactive)

// input: 4 compounds below; output: activity, negative = inhibition for each
1. COc1ccc[nH]c1=O
2. CCOC(=O)c1c(CN2CCN(CCO)CC2)n(C)c2cc(Br)c(OC)cc12
3. COC(=O)CC1=C(C(=O)OC)C(c2ccc3c(c2Cl)OCO3)C(C#N)=C(N)O1 (stereo unspecified)
4. CCOc1ccc(C2C(C#N)=C(N)Oc3cc(C)n(CCN4CCOCC4)c(=O)c32)cc1OCC (stereo unspecified)

Reply:
3.09% (inactive)
-13.7% (inactive)
14.3% (inactive)
0.201% (inactive)

// input: 2 compounds below; output: activity, negative = inhibition for each
1. COc1nnnc2c1sc1nc(N3CCOCC3)c3c(c12)CC(C)(C)OC3
2. N#Cc1nc(COc2ccc(Cl)cc2)oc1N1CCN(Cc2ccccc2)CC1

Reply:
-7.42% (inactive)
4.41% (inactive)
